Target: Renin (Homo sapiens, UniProt P00797)
Sequence (P00797 whole entry): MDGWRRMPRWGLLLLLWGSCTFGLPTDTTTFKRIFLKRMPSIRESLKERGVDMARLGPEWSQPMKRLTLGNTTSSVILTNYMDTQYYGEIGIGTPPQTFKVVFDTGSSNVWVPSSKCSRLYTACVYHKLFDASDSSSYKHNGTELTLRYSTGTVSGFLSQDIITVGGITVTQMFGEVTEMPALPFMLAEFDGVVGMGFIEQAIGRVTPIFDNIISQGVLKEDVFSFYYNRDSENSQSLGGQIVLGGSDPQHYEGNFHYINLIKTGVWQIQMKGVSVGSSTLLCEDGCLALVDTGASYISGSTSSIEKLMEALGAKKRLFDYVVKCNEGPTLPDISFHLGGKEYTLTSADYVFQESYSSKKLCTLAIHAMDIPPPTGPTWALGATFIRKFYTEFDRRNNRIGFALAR
pKi: −log10 of the molar value.
Literature-derived pKi for Renin (Homo sapiens, UniProt P00797) follows.
readout label: pKi

>>> df
                                   compound                           system_name  readout_label  experimental_value
0  COC(=O)[C@H](Cc1ccccc1)NC(=O)[C@@H](NC(=O)[C@@H](O)[C@@H](N)CC(C)C)C(C)C  Renin (Homo sapiens, UniProt P00797)            pKi                2.61
1  C[C@H](NC(CCc1ccccc1)C(=O)O)C(=O)N1CCC[C@H]1C(=O)O (some centres undefined)  Renin (Homo sapiens, UniProt P00797)            pKi                8.92
2  CC(C)[C@]1(C)CC(=O)N(Cc2cc(F)cc(C(=O)N[C@@H](C)c3ccccc3)c2)C(=N)N1  Renin (Homo sapiens, UniProt P00797)            pKi                9.22
3  C[C@@]1(c2ccc3sccc3c2)CC(=O)N(Cc2cccc(C(=O)NCc3ccccc3)c2)C(=N)N1  Renin (Homo sapiens, UniProt P00797)            pKi                7.09
